This section lists Ki readings for Cannabinoid receptor 2 (Homo sapiens).
Numbers only, in nM.

The reported value for Cc1cc(-c2cc(C(=O)NC3C4(C)CCC(C4)C3(C)C)nn2Cc2ccc(CNCCCCCCN)cc2)ccc1Cl (centres undefined) in terms of Ki is 260

Now, please, on to the next compound.
The reported value for CCCCC/C=C\C/C=C\C/C=C\C/C=C\CCCCOC(CO)COC(=O)CCCCCNC(=O)CCCC[C@@H]1SC[C@@H]2NC(=O)N[C@@H]21 (some centres undefined) in terms of Ki is 450

###

This section lists Ki readings for UniProt:P34972.
Numbers only, in nM.

The observed Ki for CCCCC/C=C\C/C=C\C/C=C\C/C=C\CCCC(=O)OC(CO)CO [2-ARACHIDONOYLGLYCEROL] when tested with UniProt:P34972 stands at 1300

The observed Ki for CCCCC/C=C\C/C=C\C/C=C\C/C=C\CCCC(=O)OC(CO)COC(=O)CCCCCNC(=O)CCCC[C@@H]1SC[C@@H]2NC(=O)N[C@@H]21 (some centres not stated) when tested with UniProt:P34972 stands at 379

Next:
The observed Ki for C#CCCCC(=O)OCC(CO)OCCCC/C=C\C/C=C\C/C=C\C/C=C\CCCCC (configuration not stated) when tested with UniProt:P34972 stands at 84.9
